All values here come from patent US9302999B2.

# Lookup of reported Plant response rating, Crabgrass, Large keyed by entry
tested on: crabgrass, large (large crabgrass, Digitaria sanguinalis); assay: Test A pre-/postemergence: crabgrass, large; assay type: in vivo; conditions: Preemergence, 125 g ai/ha; 0 to 100 scale (0 no effect, 100 complete control)
Note: the reply should be a number with no unit written.

Take a look at these entries with their results.
Cc1nn(-c2ccc(C(F)(F)F)cc2)nc1Oc1ccc(Cl)c(C(F)(F)F)c1 ... 0
Cc1nn(-c2cccc([N+](=O)[O-])c2)nc1C(=O)c1cccc(C(F)(F)F)c1 ... 0
Cc1nn(-c2ccc(F)cc2)nc1Oc1ccc(F)c(C(F)(F)F)c1 ... 90

Proceed to the following item.
// sample Cc1nn(-c2ccccc2I)nc1C(=O)c1cccc(C(F)(F)F)c1 , its Plant response rating, Crabgrass, Large was 0
